Please provide measured IC50, Myostatin SMAD RGA for the entries that follow.
subject of test: ActRIIA and ActRIIB (on TGFB/SMAD SBE Reporter HEK293 cells) (human)
Sequence (chain, as listed by the source, chain 1 of 2): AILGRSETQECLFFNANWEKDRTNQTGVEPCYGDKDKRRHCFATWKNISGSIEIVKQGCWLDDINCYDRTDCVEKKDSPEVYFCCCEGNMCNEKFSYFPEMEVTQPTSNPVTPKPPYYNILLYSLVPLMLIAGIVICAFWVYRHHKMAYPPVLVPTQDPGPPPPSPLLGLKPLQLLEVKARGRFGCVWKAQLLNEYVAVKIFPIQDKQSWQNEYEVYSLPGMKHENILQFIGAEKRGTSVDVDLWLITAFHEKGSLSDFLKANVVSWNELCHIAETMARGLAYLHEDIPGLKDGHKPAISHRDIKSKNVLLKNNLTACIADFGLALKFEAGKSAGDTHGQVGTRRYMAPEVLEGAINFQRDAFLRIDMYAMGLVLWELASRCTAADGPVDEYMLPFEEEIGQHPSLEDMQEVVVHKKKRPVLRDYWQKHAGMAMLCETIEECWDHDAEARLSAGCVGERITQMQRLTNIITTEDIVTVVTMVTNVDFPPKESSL
Sequence (chain, as listed by the source, chain 2 of 2): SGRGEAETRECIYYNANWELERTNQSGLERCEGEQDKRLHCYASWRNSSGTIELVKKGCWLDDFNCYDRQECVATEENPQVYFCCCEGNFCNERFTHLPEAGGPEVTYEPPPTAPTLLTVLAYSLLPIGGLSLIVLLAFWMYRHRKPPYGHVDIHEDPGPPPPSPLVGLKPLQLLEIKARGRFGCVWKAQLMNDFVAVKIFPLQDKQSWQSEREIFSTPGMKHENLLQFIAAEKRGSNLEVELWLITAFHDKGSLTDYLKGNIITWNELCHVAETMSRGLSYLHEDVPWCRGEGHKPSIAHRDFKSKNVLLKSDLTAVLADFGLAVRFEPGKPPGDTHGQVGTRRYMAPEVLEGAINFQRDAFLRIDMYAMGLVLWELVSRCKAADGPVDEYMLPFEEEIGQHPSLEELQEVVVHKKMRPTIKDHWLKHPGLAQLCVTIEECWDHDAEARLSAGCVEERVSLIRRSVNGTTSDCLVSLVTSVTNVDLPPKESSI
measurement description: cell-based or functional assay
Expressed in nM, but write only the number.

stdin: Returns the measured IC50, Myostatin SMAD RGA for the input binder. Input: Antibody Ochsamaulsalat (antibody, V domains shown, full-length IgG) VH: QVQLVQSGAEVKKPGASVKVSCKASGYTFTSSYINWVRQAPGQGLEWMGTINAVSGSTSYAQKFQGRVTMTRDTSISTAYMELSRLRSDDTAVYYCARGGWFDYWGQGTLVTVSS VL: QSALTQPASVSGSPGQSITISCTGTSSDVGSRNYVNWYQQHPGKAPKLMIYGVSKRESGVSNRFSGSKSGNTASLTISGLQAEDEADYYCGTFAGGDYYGVFGGGTKLTVL
stdout: 0.653

stdin: Item Bimagrumab (antibody, V domains shown) VH: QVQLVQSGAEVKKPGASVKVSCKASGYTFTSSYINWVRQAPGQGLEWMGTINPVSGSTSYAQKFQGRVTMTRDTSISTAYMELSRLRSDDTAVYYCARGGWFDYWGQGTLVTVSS VL: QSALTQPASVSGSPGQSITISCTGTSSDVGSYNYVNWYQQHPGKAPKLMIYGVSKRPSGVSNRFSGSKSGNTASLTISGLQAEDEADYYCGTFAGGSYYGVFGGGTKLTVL has what recorded IC50, Myostatin SMAD RGA?
stdout: 0.56

stdin: I have this binder here, Antibody Dürrfloischeggla (antibody, V domains shown, full-length IgG) VH: QVQLVQSGAEVKKPGASVKVSCKASGYTFTSSYINWVRQAPGQGLEWMGTINAVSGSTSYAQKFQGRVTMTRDVSISTAYMELSRLRSDDTAVYYCARGGWFDYWGQGTLVTVSS VL: QSALTQPASVSGSPGQSITISCTGTSSDVGSYNVVNWYQQHPGKAPKLMISGVSKRESGVSNRFSGSKSGNTASLTISGLQAEDEADYYCGTFAGGKYYGVFGGGTKLTVL , and I need its recorded IC50, Myostatin SMAD RGA.
stdout: 0.679

stdin: Consider the binder Antibody Duuranad (antibody, V domains shown, full-length IgG) VH: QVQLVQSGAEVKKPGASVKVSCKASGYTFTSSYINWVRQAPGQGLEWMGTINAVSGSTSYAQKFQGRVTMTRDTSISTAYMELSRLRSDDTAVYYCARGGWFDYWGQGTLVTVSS VL: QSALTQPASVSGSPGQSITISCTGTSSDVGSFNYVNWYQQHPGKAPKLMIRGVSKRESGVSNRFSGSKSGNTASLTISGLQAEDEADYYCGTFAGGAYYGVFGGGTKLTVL and give its measured IC50, Myostatin SMAD RGA.
stdout: 0.432

stdin: Please report the recorded IC50, Myostatin SMAD RGA for Antibody Hutzelbrot (antibody, V domains shown, full-length IgG) VH: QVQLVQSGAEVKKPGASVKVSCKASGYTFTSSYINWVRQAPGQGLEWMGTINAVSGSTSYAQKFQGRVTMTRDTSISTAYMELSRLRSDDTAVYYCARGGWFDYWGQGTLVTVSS VL: QSALTQPASVSGSPGQSITISCTGTSSDVGSKNYVNWYQQHPGKAPKLMIYGVSKRQSGVSNRFSGSKSGNTASLTISGLQAEDEADYYCGTFAGGDYYGVFGGGTKLTVL .
stdout: 0.73

stdin: Would you kindly share the measured IC50, Myostatin SMAD RGA for Antibody Hasaschlegel (antibody, V domains shown, full-length IgG) VH: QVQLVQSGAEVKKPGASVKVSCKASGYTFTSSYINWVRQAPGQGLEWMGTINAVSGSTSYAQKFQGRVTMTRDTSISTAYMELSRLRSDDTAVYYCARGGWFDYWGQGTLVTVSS VL: QSALTQPASVSGSPGQSITISCTGTSSDVGSYDYVNWYQQHPGKAPKLMIHGVSKRESGVSNRFSGSKSGNTASLTISGLQAEDEADYYCGTFAGGSYYGVFGGGTKLTVL ?
stdout: 0.977

stdin: Which value of IC50, Myostatin SMAD RGA has been reported for Antibody Riaba (antibody, V domains shown, full-length IgG) VH: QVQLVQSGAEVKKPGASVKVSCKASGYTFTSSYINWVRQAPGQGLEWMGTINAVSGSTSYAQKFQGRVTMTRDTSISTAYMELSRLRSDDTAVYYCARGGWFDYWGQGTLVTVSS VL: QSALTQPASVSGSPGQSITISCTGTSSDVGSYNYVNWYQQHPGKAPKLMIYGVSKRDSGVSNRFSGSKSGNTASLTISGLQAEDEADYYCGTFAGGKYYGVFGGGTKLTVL in the records?
stdout: 0.263

stdin: Look up IC50, Myostatin SMAD RGA for this binder: Antibody Wurschdsalat (antibody, V domains shown, full-length IgG) VH: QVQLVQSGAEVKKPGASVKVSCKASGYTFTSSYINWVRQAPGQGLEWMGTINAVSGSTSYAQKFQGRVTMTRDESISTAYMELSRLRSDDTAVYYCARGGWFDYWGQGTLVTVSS VL: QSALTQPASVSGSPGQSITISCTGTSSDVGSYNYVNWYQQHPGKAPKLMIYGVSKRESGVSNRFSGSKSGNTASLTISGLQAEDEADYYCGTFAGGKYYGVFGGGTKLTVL
stdout: 0.4

stdin: Endpoint output: IC50, Myostatin SMAD RGA of Antibody Bäradreck (antibody, V domains shown, full-length IgG) VH: QVQLVQSGAEVKKPGSSVKVSCKASGYTFTSSYINWVRQAPGQGLEWMGTINPVSGSTSYAQKFQGRVTITADTSTSTAYMELSSLRSEDTAVYYCARGGWFDYWGQGTLVTVSS VL: QSALTQPRSVSGSPGQSVTISCTGTSSDVGSYNYVNWYQQHPGKAPKLMIYGVSKRPSGVPDRFSGSKSGNTASLTISGLQAEDEADYYCGTFAGGSYYGVFGGGTKLTVL . Value?
stdout: 0.255

stdin: Would you mind telling me what IC50, Myostatin SMAD RGA value was observed for Antibody Pfitzauf (antibody, V domains shown, full-length IgG) VH: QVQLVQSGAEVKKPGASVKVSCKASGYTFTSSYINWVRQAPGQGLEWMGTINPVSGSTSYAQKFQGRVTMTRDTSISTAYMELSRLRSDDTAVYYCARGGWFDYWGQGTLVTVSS VL: QSALTQPASVSGSPGQSITISCTGTSSDVGSGNYVNWYQQHPGKAPKLMIYGVSKRESGVSNRFSGSKSGNTASLTISGLQAEDEADYYCGTFAGGKYYGVFGGGTKLTVL ?
stdout: 0.0984
